Reported SOA DN AUCSYS (ng·h/mL)/(mg/kg) values are given for each entry in this list.
Assay: Rat pharmacokinetic study after oral administration (SOA)
Format: in vivo
Details: male Han Wistar rats, dose-normalised systemic AUC

[
  {
    "Smi": "C=CC(=O)Nc1cc(Nc2nccc(Nc3cc(Cl)c(F)cc3C(C)(C)O)n2)c(OC)cc1N1C[C@@H](F)[C@@H](N(C)C)C1",
    "SOA DN AUCSYS (ng·h/mL)/(mg/kg)": "50.1 (ng·h/mL)/(mg/kg)"
  }
]

Exercise: For the compound shown here, C=CC(=O)Nc1cc(Nc2nccc(Nc3cc(Cl)c(F)cc3C(C)(C)O)n2)c(OC)cc1N1CC[C@@H](CN(C)C)C1 , give the reported SOA DN AUCSYS (ng·h/mL)/(mg/kg).
Solution: 77.8 (ng·h/mL)/(mg/kg)

Exercise: What about this compound? C=CC(=O)Nc1cc(Nc2nccc(Nc3cc(Cl)c(F)cc3C(C)(C)O)n2)c(OC)cc1N1CC[C@@H]1CN(C)C
Solution: 116 (ng·h/mL)/(mg/kg)

Exercise: Could you do the same for C=CC(=O)Nc1cc(Nc2nccc(Nc3cc(Cl)c(F)cc3C(C)(C)O)n2)c(OC)cc1N1CC[C@@H](N(C)C)C1 , please?
Solution: 103 (ng·h/mL)/(mg/kg)

Exercise: Field entry: C=CC(=O)Nc1cc(Nc2ncnc(Nc3cc(Cl)c(F)cc3C(C)(C)O)n2)c(OC)cc1N1C[C@@H](F)[C@@H](N(C)C)C1
Solution: 249 (ng·h/mL)/(mg/kg)

Exercise: Request: C=CC(=O)Nc1cc(Nc2ncnc(Nc3cc(Cl)c(F)cc3C(C)(C)O)n2)c(OC)cc1N1CC[C@@H](N(C)C)C1
Solution: 432 (ng·h/mL)/(mg/kg)
